Documented reverse-splicing fitness across a set of variants
B1: Azoarcus group I ribozyme (parent)
chain: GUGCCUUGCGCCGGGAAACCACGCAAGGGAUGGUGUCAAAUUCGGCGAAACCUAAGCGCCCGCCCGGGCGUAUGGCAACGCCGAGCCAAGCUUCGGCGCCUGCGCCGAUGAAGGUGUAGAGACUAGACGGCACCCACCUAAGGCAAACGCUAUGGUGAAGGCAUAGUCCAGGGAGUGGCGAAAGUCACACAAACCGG

# Variants of: B1
# Assay info: reverse-splicing fitness (ratio to wild type); higher = more active; in vitro selection; Mg2+ level not given

{"Mutant name": "C82U A145C C169U U176C", "reverse-splicing fitness": 0.00956}
{"Mutant name": "C82U A111G A120C A145C C150U C169U U176A", "reverse-splicing fitness": 0.0144}
{"Mutant name": "C82G A111C A120U", "reverse-splicing fitness": 0.0509}
